# Tested System: Bcl-2-like protein 1 (Homo sapiens)
# Sequence (Q07817 whole entry): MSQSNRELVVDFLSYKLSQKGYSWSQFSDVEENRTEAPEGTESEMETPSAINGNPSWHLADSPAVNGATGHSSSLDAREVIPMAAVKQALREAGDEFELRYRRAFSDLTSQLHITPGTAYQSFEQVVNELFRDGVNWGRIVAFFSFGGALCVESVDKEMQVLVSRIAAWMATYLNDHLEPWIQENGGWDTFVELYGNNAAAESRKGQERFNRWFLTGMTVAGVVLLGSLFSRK
# Assay Procedure: Inhibition of Bcl-xL (unknown origin)/Bak interaction preincubated for 5 mins followed by fluorescein-labeled peptide addition and measured after 10 mins by fluorescein-labeled peptide displacement based fluorescence polarization assay
pKi: −log10 of the molar value.
Endpoint Label: pKi

Solved cases (10 shown):
[
  {
    "Structure Smiles String": "CC(C)=CCCC1=CC[C@H](C(=O)N(C)O)[C@@H](c2ccccc2)C1",
    "pKi": "< 4.64"
  },
  {
    "Structure Smiles String": "CONC(=O)[C@@H]1CC=C(CCC=C(C)C)C[C@H]1c1ccccc1",
    "pKi": "< 4.64"
  },
  {
    "Structure Smiles String": "CONC(=O)[C@H]1CC=C(CCC=C(C)C)C[C@@H]1c1ccccc1",
    "pKi": "< 4.64"
  },
  {
    "Structure Smiles String": "COC(=O)c1ccc(NC(=O)[C@@H]2CC=C(CCC=C(C)C)C[C@H]2c2ccccc2)cc1",
    "pKi": "< 4.64"
  },
  {
    "Structure Smiles String": "CON(C)C(=O)[C@H]1CC2=C(CCCC2(C)C)C[C@@H]1c1ccccc1",
    "pKi": "< 4.64"
  },
  {
    "Structure Smiles String": "COC(=O)CCNC(=O)[C@@H]1CC=C(CCC=C(C)C)C[C@H]1c1ccccc1",
    "pKi": "< 4.64"
  },
  {
    "Structure Smiles String": "CC(C)=CCCC1=CC[C@H](C(=O)Nc2ccc(C(=O)O)cc2)[C@@H](c2ccccc2)C1",
    "pKi": "< 4.64"
  },
  {
    "Structure Smiles String": "CC(C)=CCCC1=CC[C@@H](C(=O)Nc2ccc(C(=O)O)cc2)[C@H](c2ccccc2)C1",
    "pKi": "< 4.64"
  },
  {
    "Structure Smiles String": "COC(=O)CCNC(=O)[C@H]1CC=C(CCC=C(C)C)C[C@@H]1c1ccccc1",
    "pKi": "< 4.64"
  },
  {
    "Structure Smiles String": "CON(C)C(=O)[C@@H]1CC2=C(CCCC2(C)C)C[C@H]1c1ccccc1",
    "pKi": "< 4.64"
  }
]

Fill in: pKi of `CC(C)=CCCC1=CC[C@@H](C(=O)NCCC(=O)O)[C@H](c2ccccc2)C1` is ___
< 4.64

What about `CC(C)=CCCC1=CC[C@H](C(=O)N(C)C)[C@@H](c2ccccc2)C1` ?
4.70

Please do the same for `COc1ccc(NC(=O)[C@H]2CC=C(CCC=C(C)C)C[C@@H]2c2ccccc2)cc1` as well.
< 4.64

Moving on to `CC(C)=CCCC1=CC[C@H](C(=O)NCCC(=O)O)[C@@H](c2ccccc2)C1`
< 4.64

Same question for `COC(=O)c1ccc(NC(=O)[C@H]2CC=C(CCC=C(C)C)C[C@@H]2c2ccccc2)cc1` please.
< 4.64

Can you handle `CC(C)=CCCC1=CC[C@H](C(=O)NO)[C@@H](c2ccccc2)C1` next?
4.72

`COc1ccc(NC(=O)[C@@H]2CC=C(CCC=C(C)C)C[C@H]2c2ccccc2)cc1` , same question.
< 4.64

Continue with `CC(C)=CCCC1=CC[C@H](C(=O)O)[C@@H](c2ccccc2)C1`
5.24

Try `CC(C)=CCCC1=CC[C@@H](C(=O)N(C)C)[C@H](c2ccccc2)C1` next.
< 4.64

Next compound: `CC(C)=CCCC1=CC[C@@H](C(N)=O)[C@H](c2ccccc2)C1`
< 4.64

The values you see were collected from ChEMBL document CHEMBL4616621.
